System: Candida albicans
ASSAY_PROTOCOL: Antifungal activity against Candida albicans MTCC 1637 after 24 hr by microtiter broth dilution method
Assay type: functional
CONDITION_SUMMARY: MTCC 1637, 24 h
REPORTED_ENDPOINT: MIC (µg/mL)

>>> numeric_value("CCCCCCC(=O)Oc1ccc(/C=N/Cc2cccnc2)cc1")
150
>>> numeric_value("CCCCCCCCCCCCCC(=O)Oc1ccc(/C=N/Cc2cccnc2)cc1")
300
>>> numeric_value("OC(Cn1cncn1)(Cn1cncn1)c1ccc(F)cc1F")
64
>>> numeric_value("CCCCCCCCCC(=O)Oc1ccc(/C=N/Cc2cccnc2)cc1")
300
